Cited source for all entries: ChEMBL document CHEMBL5038598

The entries below come with measured log10 of Ki values attached.
# SYSTEM NAME: Leucine-rich repeat serine/threonine-protein kinase 2 (Homo sapiens, UniProt Q5S007, G2019S)
# Sequence (Q5S007 whole entry G2019S, the tested form may be a part): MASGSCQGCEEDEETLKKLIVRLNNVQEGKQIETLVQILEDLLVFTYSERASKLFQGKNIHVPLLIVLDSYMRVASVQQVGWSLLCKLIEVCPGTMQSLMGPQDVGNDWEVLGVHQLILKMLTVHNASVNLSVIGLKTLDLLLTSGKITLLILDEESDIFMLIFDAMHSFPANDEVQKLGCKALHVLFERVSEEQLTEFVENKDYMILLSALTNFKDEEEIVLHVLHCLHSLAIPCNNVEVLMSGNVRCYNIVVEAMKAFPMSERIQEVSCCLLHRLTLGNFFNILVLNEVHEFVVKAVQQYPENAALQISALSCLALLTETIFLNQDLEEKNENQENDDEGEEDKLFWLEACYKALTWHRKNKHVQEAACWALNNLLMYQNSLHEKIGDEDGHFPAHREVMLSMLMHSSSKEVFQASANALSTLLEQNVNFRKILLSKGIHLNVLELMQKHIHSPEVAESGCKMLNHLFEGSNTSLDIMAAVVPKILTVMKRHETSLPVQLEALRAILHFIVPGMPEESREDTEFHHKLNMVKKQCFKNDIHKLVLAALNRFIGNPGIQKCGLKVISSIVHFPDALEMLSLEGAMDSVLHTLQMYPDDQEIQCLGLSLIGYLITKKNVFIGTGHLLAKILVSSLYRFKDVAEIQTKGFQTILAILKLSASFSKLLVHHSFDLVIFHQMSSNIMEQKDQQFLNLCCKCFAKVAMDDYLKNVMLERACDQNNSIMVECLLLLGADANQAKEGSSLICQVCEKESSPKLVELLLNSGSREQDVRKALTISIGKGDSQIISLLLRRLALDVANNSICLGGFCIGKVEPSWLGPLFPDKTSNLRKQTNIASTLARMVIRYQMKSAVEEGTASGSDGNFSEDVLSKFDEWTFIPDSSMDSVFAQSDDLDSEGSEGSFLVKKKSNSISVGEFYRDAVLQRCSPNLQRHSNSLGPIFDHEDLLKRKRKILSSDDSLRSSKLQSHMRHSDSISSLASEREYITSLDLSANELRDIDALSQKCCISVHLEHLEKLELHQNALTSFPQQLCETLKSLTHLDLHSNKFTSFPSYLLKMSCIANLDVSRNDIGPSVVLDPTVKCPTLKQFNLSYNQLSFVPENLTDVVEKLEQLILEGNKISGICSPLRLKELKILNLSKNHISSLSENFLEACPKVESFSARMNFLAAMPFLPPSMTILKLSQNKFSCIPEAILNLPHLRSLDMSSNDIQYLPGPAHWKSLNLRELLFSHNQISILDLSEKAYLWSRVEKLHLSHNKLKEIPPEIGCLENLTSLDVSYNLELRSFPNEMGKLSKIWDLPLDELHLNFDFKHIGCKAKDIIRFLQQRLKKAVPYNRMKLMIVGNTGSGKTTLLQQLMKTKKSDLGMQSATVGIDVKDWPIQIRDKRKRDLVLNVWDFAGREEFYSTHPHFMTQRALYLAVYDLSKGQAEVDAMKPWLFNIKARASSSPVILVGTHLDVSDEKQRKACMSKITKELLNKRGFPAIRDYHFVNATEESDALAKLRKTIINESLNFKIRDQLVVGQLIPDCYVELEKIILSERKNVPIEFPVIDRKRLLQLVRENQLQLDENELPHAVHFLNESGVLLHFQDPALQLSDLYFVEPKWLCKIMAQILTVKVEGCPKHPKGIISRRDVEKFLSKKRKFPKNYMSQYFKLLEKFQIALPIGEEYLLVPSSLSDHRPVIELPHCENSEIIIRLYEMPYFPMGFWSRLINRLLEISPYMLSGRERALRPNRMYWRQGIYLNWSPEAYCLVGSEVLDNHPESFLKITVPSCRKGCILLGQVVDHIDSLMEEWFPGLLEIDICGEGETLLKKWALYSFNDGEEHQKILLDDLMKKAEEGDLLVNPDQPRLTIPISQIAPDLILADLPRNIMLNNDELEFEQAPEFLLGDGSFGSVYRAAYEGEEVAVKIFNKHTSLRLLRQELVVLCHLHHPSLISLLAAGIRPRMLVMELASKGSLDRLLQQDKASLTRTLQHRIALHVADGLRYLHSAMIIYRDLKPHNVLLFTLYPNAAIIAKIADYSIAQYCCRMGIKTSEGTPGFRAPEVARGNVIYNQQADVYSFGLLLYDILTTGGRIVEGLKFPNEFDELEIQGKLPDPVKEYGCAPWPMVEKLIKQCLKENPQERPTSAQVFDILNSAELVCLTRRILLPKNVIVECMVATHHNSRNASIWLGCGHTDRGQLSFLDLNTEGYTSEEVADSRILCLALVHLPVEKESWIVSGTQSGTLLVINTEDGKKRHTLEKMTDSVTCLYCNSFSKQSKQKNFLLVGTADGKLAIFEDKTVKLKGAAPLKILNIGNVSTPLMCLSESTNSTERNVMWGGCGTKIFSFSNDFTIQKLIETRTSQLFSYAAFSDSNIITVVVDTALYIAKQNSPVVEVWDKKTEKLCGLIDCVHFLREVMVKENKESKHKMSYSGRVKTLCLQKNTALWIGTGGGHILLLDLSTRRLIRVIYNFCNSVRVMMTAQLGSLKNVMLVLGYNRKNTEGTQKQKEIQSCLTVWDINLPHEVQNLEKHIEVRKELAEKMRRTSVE
# ASSAY OVERVIEW: Binding affinity to human GST tagged truncated LRRK2 G2019S mutant incubated for 2 hrs by TR-FRET based Lanthascreen kinase activity assay
Response schema: value (number) is log10 of Ki in units of nM.

>  <SMILES DATA>
C[C@@H]1CCCN1c1c(C(N)=O)c2c(N)ncnc2n1C

>  <log10 of Ki>
2.19

$$$$
>  <SMILES DATA>
Cn1c(NCc2ccccc2)c(C#N)c2c(N)ncnc21

>  <log10 of Ki>
2.39

$$$$
>  <SMILES DATA>
C[C@@H]1CCCN1c1c(C#N)c2c(N)nc(Nc3cn[nH]c3)nc2n1C

>  <log10 of Ki>
-0.40

$$$$
>  <SMILES DATA>
C[C@@H]1CCCN1c1cc2c(N)ncnc2n1C

>  <log10 of Ki>
2.64

$$$$
>  <SMILES DATA>
C[C@@H]1CCCN1c1c(C#N)c2c(N)nc(Nc3cnn(C)c3)cc2n1C

>  <log10 of Ki>
2.90

$$$$

Prompt line: Report log10 of Ki for Cn1c(NCc2ccccc2F)c(C#N)c2c(N)ncnc21
Response line: 2.08

Prompt line: Assign log10 of Ki to the following record: C[C@@H]1CCCN1c1c(C#N)c2c(N)nccc2n1C
Response line: 0.30

Prompt line: Return log10 of Ki for the following compound: Cc1c(Nc2nc(N)c3c(C#N)c(N4CCC[C@H]4C)n(C)c3n2)cnn1C
Response line: 0.48

Prompt line: Dear colleague, please send me the reported log10 of Ki for Cn1c(-c2ccccc2)c(C#N)c2c(N)ncnc21 when you can.
Response line: 1.52

Prompt line: Determine its reported log10 of Ki: Nc1ncnc2nc[nH]c12
Response line: 3.83

Prompt line: Give a short answer stating reported log10 of Ki for Cn1c(N)c(C#N)c2c(N)ncnc21 .
Response line: 2.77

Prompt line: Please give the documented log10 of Ki of Cn1c(-c2cccc(F)c2F)c(C#N)c2c(N)ncnc21
Response line: 1.04

====

# ASSAY OVERVIEW: Ratio of drug level in Md1a/1b C57BL/6 mouse brain to plasma at 5 mg/kg, sc and measured after 0.5 hrs
# Assay type: ADME, organism-based
VALUE KIND: Kp at 0.5 h
Lab note: jot down the number only; don't add units.

>  <SMILES DATA>
Cc1c(Nc2nc(N)c3c(C#N)c(N4CCC[C@H]4C)n(C)c3n2)cnn1[C@H]1CCOC1

>  <VALUE KIND>
Kp at 0.5 h

>  <OBSERVED RESULT>
0.65

$$$$

Prompt line: For the molecule Cc1c(Nc2nc(N)c3c(C#N)c(N4CCC[C@H]4C)n(C)c3n2)cnn1[C@@H]1CCOC1 , give its measured Kp at 0.5 h value.
Response line: 1.05

====

# ASSAY OVERVIEW: Drug uptake in Mdr1a deficient C57BL/6 mouse plasma at 5 mg/kg, sc and measured after 1 hrs
# Type: ADME, organism-based
VALUE KIND: concentration at 1 h
Please give the number followed by its unit.

Prompt line: Look up and state reported concentration at 1 h for Cc1c(Nc2nc(N)c3c(C#N)c(N4CCC[C@H]4C)n(C)c3n2)cnn1[C@H]1CCOC1
Response line: 100 ng/mL

====

# SYSTEM NAME: Leucine-rich repeat serine/threonine-protein kinase 2 (Homo sapiens, UniProt Q5S007, G2019S)
# ASSAY OVERVIEW: Binding affinity to human LRRK2 (H970/E2527) G2019S mutant expressed in mammalian system assessed as dissociation constant measured at 1 uM by DiscoveRx KINOMEscan assay
VALUE KIND: Kd (nM)
API: value field is a number in nM; no unit string.

>  <SMILES DATA>
Cc1c(Nc2nc(N)c3c(C#N)c(N4CCC[C@H]4C)n(C)c3n2)cnn1[C@H]1CCOC1

>  <Kd / nM>
5.5

$$$$

Now look at this one.
Prompt line: Give Kd for Cc1c(Nc2nc(N)c3c(C#N)c(N4CCC[C@H]4C)n(C)c3n2)cnn1[C@@H]1CCOC1
Response line: 3.9

====

# SYSTEM NAME: Proto-oncogene tyrosine-protein kinase receptor Ret (Homo sapiens) (UniProt P07949)
# Sequence (P07949 whole entry): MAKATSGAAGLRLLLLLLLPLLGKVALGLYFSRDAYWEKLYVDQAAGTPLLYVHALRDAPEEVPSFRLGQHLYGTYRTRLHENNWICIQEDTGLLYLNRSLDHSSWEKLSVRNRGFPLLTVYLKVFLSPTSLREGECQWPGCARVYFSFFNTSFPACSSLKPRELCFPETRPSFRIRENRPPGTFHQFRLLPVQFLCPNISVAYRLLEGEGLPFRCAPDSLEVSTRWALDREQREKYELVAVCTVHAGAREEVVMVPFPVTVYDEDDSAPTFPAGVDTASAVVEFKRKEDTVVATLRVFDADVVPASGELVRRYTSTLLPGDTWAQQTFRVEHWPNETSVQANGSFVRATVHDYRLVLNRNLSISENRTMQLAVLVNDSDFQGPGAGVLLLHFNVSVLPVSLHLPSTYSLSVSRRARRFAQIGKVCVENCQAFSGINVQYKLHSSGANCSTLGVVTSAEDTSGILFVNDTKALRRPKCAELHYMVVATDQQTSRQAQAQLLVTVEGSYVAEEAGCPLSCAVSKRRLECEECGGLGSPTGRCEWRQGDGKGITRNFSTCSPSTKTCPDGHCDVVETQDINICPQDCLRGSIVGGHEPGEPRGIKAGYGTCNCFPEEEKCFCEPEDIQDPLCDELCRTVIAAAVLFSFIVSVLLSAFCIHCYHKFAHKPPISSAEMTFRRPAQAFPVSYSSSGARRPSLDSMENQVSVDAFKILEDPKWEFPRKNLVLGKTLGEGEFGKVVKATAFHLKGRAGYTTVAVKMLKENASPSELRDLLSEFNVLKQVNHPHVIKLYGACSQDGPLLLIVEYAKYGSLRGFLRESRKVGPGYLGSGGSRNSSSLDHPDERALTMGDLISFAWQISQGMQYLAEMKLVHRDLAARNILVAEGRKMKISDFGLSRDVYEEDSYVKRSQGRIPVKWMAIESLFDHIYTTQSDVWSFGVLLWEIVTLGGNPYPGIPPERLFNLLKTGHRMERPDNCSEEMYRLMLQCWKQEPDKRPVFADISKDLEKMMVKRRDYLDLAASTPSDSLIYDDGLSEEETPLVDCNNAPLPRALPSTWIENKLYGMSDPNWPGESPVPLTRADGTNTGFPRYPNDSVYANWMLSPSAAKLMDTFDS
# ASSAY OVERVIEW: Inhibition of RET (unknown origin) assessed as remaining activity using botin-anti-his and Lanthascreen Eu-streptavidin measured at 1 uM incubated for 2 hrs by TR-FRET based Lanthascreen kinase activity assay relative to control
Label rule met when Activity < 30%; otherwise rule not met.

Solved entries:
>  <SMILES DATA>
C[C@@H]1CCCN1c1c(C#N)c2c(N)nccc2n1C

>  <GROUP>
rule not met

$$$$
>  <SMILES DATA>
C[C@@H]1CCCN1c1c(C#N)c2c(N)nc(Nc3cnn(C)c3)nc2n1C

>  <GROUP>
rule not met

$$$$
>  <SMILES DATA>
Cc1n[nH]cc1Nc1nc(N)c2c(C#N)c(N3CCC[C@H]3C)n(C)c2n1

>  <GROUP>
rule met

$$$$
>  <SMILES DATA>
C[C@@H]1CCCN1c1c(C#N)c2c(N)nc(Nc3ccn(C)n3)cc2n1C

>  <GROUP>
rule met

$$$$
>  <SMILES DATA>
C[C@@H]1CCCN1c1c(C#N)c2c(N)nc(Nc3cn[nH]c3)nc2n1C

>  <GROUP>
rule not met

$$$$

Prompt line: Bench note: check whether C[C@@H]1CCCN1c1c(C#N)c2c(N)ncnc2n1C shows Activity below 30%
Response line: rule not met

Prompt line: A record lists Cc1cn(C)nc1Nc1cc2c(c(N)n1)c(C#N)c(N1CCC[C@H]1C)n2C . Is its Activity below 30%?
Response line: rule met

====

# SYSTEM NAME: Leucine-rich repeat serine/threonine-protein kinase 2 (Homo sapiens, UniProt Q5S007)
# Sequence (Q5S007 whole entry): as the sequence (Q5S007 whole entry G2019S, the tested form may be a part) above, with S2019G counted along it
# ASSAY OVERVIEW: Inhibition of recombinant human LRRK2 WT using fluorescein-labeled LRRKtide as substrate in presence of ATP preincubated for 50 mins followed by anti-phospho-LRRKtide antibody addition and measured after 30 mins by TR-FRET based Lanthascreen kinase activity assay
Reported pIC50 values follow for various compounds
As a rule, pIC50 stands for the negative log10 of the concentration, concentration in M.

>  <SMILES DATA>
Cn1c(N2CCCC2)c(C#N)c2c(N)ncnc21

>  <VALUE KIND>
pIC50

>  <OBSERVED RESULT>
5.83

$$$$
>  <SMILES DATA>
Cc1c(Nc2nc(N)c3c(C#N)c(N4CCC[C@H]4C)n(C)c3n2)cnn1CC1(O)COC1

>  <VALUE KIND>
pIC50

>  <OBSERVED RESULT>
7.80

$$$$
>  <SMILES DATA>
Cn1c(NCc2ccccc2F)c(C#N)c2c(N)ncnc21

>  <VALUE KIND>
pIC50

>  <OBSERVED RESULT>
5.22

$$$$
>  <SMILES DATA>
C[C@@H]1CCCN1c1[nH]c2ncnc(N)c2c1C#N

>  <VALUE KIND>
pIC50

>  <OBSERVED RESULT>
6.78

$$$$
>  <SMILES DATA>
Cc1nn(CC(C)(C)O)cc1Nc1nc(N)c2c(C#N)c(N3CCC[C@H]3C)n(C)c2n1

>  <VALUE KIND>
pIC50

>  <OBSERVED RESULT>
7.31

$$$$

Shift focus to the following entry.
Prompt line: # return recorded pIC50 for input C[C@@H]1CCCN1c1c(C#N)c2c(N)nc(Nc3cnn(C)c3)nc2n1C
Response line: 8.22

====

# ASSAY OVERVIEW: Ratio of unbound drug level in C57BL/6 WT mouse brain to plasma measured at 5 mg/kg, sc and measured after 1 hrs
# Format: ADME, organism-based
# TEST CONTEXT: C57BL/6, mouse
VALUE KIND: Kp uu at 1 h
Give the value as a plain number.

Prompt line: Retrieve Kp uu at 1 h measured for Cc1c(Nc2nc(N)c3c(C#N)c(N4CCC[C@H]4C)n(C)c3n2)cnn1[C@H]1CCOC1 and print it.
Response line: 0.014

====

# SYSTEM NAME: Leucine-rich repeat serine/threonine-protein kinase 2 (Homo sapiens, UniProt Q5S007)
VALUE KIND: log10(Ki) (log10 of the value in µM)
Would you kindly interpret these values as log10 of Ki expressed in µM?

Consider the worked cases shown below.
>  <SMILES DATA>
C[C@H]1CCCN1c1c(C#N)c2c(N)ncnc2n1C

>  <log10(Ki)>
-0.87

$$$$
>  <SMILES DATA>
Cc1cn(C)nc1Nc1cc2c(c(N)n1)c(C#N)c(N1CCC[C@H]1C)n2C

>  <log10(Ki)>
-1.20

$$$$
>  <SMILES DATA>
C[C@@H]1CCCN1c1c(C#N)c2c(N)nc(Nc3cnn(C)c3)nc2n1C

>  <log10(Ki)>
-4.00

$$$$
>  <SMILES DATA>
CN(C)c1c(C#N)c2c(N)ncnc2n1C

>  <log10(Ki)>
-0.95

$$$$

Prompt line: Give recorded log10(Ki). Cn1c(N2CCCC2)c(C#N)c2c(N)ncnc21
Response line: -1.39

Prompt line: State its log10(Ki) for this molecule: Cc1n[nH]cc1Nc1nc(N)c2c(C#N)c(N3CCC[C@H]3C)n(C)c2n1
Response line: -3.00

Prompt line: Provide log10(Ki) value for the following molecule: Cn1c(-c2cccc(F)c2F)c(C#N)c2c(N)ncnc21
Response line: -1.85
